tested on: ICS; assay: qHTS profiling for inhibitors of Plasmodium falciparum proliferation (AID 504749); also: nearly all actives have a fitted effect of over 60% in size; conditions: P. falciparum in erythrocytes, SYBR Green DNA, 72 h; series mostly up to 28.7 µM
Records with an inconclusive call do not appear. Activity calls are given as the source filed them. Calls follow the shape of the dose curve; as a rule, active = well fitted inhibition curve with a large enough effect; inconclusive = small, poorly fitted or top-dose-only effect; inactive = flat fitted curve, though single readings scatter.
Just give me one of these, please: active, inactive

Observe how each entry below is paired with its result.
molecule=O=C(CCNNC(=O)c1ccncc1)NCc1ccccc1 target_or_system=ICS class_name=inactive
molecule="COC(=O)C1=C(C)NC(C)=C(C(=O)OC(C)(C)CN(C)CCC(c2ccccc2)c2ccccc2)C1c1cccc([N+](=O)[O-])c1 (configuration not stated)" target_or_system=ICS class_name=active
molecule=O=C1CC2(CCCC2)CC(=O)N1CCCCN1CCN(c2ncccn2)CC1 target_or_system=ICS class_name=inactive

Lookup: For this molecule, state the assay outcome: CCN(CC)CCNC(=O)c1ccc(NC(C)=O)cc1
Found: inactive

Lookup: For this molecule, state the assay outcome: NC(=O)c1ncn([C@@H]2O[C@H](CO)[C@@H](O)[C@H]2O)c1O
Found: inactive
